- test.target: Alpha-2A adrenergic receptor (Homo sapiens); also: assay procedure not described here
- Sequence (P08913 whole entry): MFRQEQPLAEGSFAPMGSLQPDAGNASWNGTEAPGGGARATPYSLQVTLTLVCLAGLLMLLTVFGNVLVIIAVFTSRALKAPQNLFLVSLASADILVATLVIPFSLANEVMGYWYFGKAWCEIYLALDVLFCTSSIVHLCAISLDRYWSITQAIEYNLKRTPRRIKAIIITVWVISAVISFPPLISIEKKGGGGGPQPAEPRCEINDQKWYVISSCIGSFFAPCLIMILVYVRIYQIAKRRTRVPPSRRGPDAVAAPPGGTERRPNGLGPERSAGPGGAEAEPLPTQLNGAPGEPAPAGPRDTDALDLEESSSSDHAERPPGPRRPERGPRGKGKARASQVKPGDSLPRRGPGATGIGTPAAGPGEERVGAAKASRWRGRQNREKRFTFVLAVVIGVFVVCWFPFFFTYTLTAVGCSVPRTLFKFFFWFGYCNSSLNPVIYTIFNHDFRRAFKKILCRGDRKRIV
- Format: functional, cell-based
measurement.type: AC50

A selection of reference data follows.
compound	result
CCCOc1ccc(C(=O)OCCN(CC)CC)cc1N [PROPARACAINE]	> 30 µM
CC(N)Cc1ccccc1 (stereo unspecified) [AMPHETAMINE]	> 30 µM
CC[C@H](C)C(=O)O[C@H]1C[C@H](O)C=C2C=C[C@H](C)[C@H](CC[C@@H](O)C[C@@H](O)CC(=O)O)[C@H]21 [PRAVASTATIN]	> 30 µM
[H]/N=C(/N)c1ccc(NCc2nc3cc(C(=O)N(CCC(=O)O)c4ccccn4)ccc3n2C)cc1 [DABIGATRAN]	> 30 µM
CC(C)NCC1CCc2cc(CO)c([N+](=O)[O-])cc2N1 (stereo unspecified) [OXAMNIQUINE]	> 10 µM
COc1ccc2c(c1)C(=O)N(CCc1ccc(S(=O)(=O)NC(=O)NC3CCCCC3)cc1)C(=O)C2(C)C [GLIQUIDONE]	> 30 µM
CN(C)CCCN1c2ccccc2Sc2ccccc21 [PROMAZINE]	> 10 µM
Cc1c(O)c(=O)ccn1C [DEFERIPRONE]	> 30 µM
NC[C@H]1CC[C@H](C(=O)O)CC1 [TRANEXAMIC ACID]	> 10 µM
CN1CCc2cccc3c2[C@H]1Cc1ccc(O)c(O)c1-3 [APOMORPHINE]	3.8 µM

Attention now turns to another entry.
Query: Provide AC50 value for the following compound: CC(C)C(=O)OCC(=O)[C@@]12O[C@H](C3CCCCC3)O[C@@H]1C[C@H]1[C@@H]3CCC4=CC(=O)C=C[C@]4(C)[C@H]3[C@@H](O)C[C@@]12C [CICLESONIDE]
Result: > 10 µM
